Target: T1, NSP2 (Rotavirus (strain  in …, UniProt A2T3N6 1-317))
T1 sequence: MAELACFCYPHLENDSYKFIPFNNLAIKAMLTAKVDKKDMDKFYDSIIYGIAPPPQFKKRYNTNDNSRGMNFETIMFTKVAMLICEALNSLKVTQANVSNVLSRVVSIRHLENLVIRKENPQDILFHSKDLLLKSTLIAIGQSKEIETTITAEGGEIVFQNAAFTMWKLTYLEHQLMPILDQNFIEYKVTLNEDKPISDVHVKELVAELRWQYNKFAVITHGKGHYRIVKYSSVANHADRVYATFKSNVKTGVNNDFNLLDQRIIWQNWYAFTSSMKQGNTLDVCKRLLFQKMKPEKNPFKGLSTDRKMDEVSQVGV
Assay: fluorescence anisotropy; no Mg2+
Conditions: protein: recombinant; chain copies: 8; label: 5' AlexaFluor488; unstructured, MFE 0
Value Kind: Kd

Binder | Value Kind | Recorded Result
CUUUUCAAGACAUGCAACAA (ssRNA) [unstructured 20mer] | Kd | 20.7 nM
